# reported Her2 level; entries follow
# measurement-target: Receptor tyrosine-protein kinase erbB-2 (Homo sapiens)
# assay: reducers of endogenous Her2 protein level, primary screen, SKBR3 breast tumor cells, AlphaScreen, ATP viability (AID 461);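 note: lower value means less Her2 protein in the cells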
# run-conditions: 18-24 h, at 10 µM, stronger effect = lower value
Please respond with the number in % and leave the unit unwritten.

Examples from the recorded data:
molecule: Clc1ccc(-n2ncc3c(NCCCn4ccnc4)ncnc32)cc1
Her2 level / %: 76.5

molecule: CCN1CCc2c(C#N)c(N3CCOCC3)nc(NCc3ccccc3)c2C1
Her2 level / %: 88

molecule: O=C(c1cccn2c(=O)c3cc(Cl)ccc3nc12)N1CCOCC1
Her2 level / %: 104

molecule: Cc1ccc(S(=O)(=O)NCCN2CCOCC2)cc1C
Her2 level / %: 93

molecule: CC(C)(C)n1cnc2cc(NS(=O)(=O)c3ccc(Br)cc3)ccc21
Her2 level / %: 69.5

molecule: O=C(Cn1c(SCC(=O)N2CCCc3ccccc32)nc2ccccc21)N1CCCC1
Her2 level / %: 96

molecule: COC(=O)c1cc(OC)c(OC)cc1NC(=O)CCC1CCCC1
Her2 level / %: 95

molecule: CC(=O)C1=C(C)NC(C)=C(C(C)=O)C1c1cccs1
Her2 level / %: 86

Incoming: Give the reported Her2 level for this molecule. CCc1nccn1S(=O)(=O)c1ccc(C)c(C)c1
Outgoing: 92.5

Incoming: Give the reported Her2 level for this molecule. CCN(CC)S(=O)(=O)c1cccc(-c2nnc(SCC(N)=O)n2CCc2ccccc2)c1
Outgoing: 108

Incoming: Give the reported Her2 level for this molecule. CC1CCCC(C(=O)OCc2ccccc2)N1 (configuration not stated)
Outgoing: 94

Incoming: Give the reported Her2 level for this molecule. COc1ccc(CCNC(=O)c2ccc(N3CCCC3=O)cc2)cc1OC
Outgoing: 108

* * *

# assay: SK-BR-3 cell growth inhibitors, pilot screen, 24 h, human (AID 572);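 note: compound exposure lasted between 18 and 24 h rather than exactly 24 h; 100% = carrier-treated control wells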
# run-conditions: SK-BR-3 viability, CellTiter-Glo luminescence, at 10 µM, stronger effect = lower value
# reported viability; entries follow
Please respond with the number in % and leave the unit unwritten.

Examples from the recorded data:
compound: O=C1C2C3C=CC(C3)C2C(=O)N1Cc1ccccc1 (configuration not stated)
viability / %: 93.5

compound: O=C(O)COc1ccc2occ(C(=O)c3ccccc3)c2c1
viability / %: 102

compound: CCc1nnc(NC(=O)C2CC(=O)N(Cc3ccco3)C2)s1 (configuration not stated)
viability / %: 107

compound: CCOC(=O)N1CCN(c2ncnc3c2[nH]c2ccc(OC)cc23)CC1
viability / %: 97.5

compound: CCN(C1CCCCC1)S(=O)(=O)c1ccc(OC)c(C)c1
viability / %: 99

compound: Cc1cc(C)n(CC(=O)n2c3c(c4ccccc42)CCCC3)n1
viability / %: 116

compound: O=C(CCC(=O)N1CCc2ccccc2C1)N1CCN(S(=O)(=O)c2ccccc2)CC1
viability / %: 82

compound: COc1ccc(OC)c(CNC(=O)COc2cc(=O)n(C)c3ccccc23)c1
viability / %: 82

Incoming: Give the reported viability for this compound. CN(Cc1ccccc1)C(=O)c1ccc2c(c1)OCO2
Outgoing: 101

Incoming: Give the reported viability for this compound. COc1ccc(NC(=O)CC2Oc3ccccc3NC2=O)cc1 (configuration not stated)
Outgoing: 87.5

Incoming: Give the reported viability for this compound. O=S(=O)(c1cc(Cl)ccc1Br)N1CCOCC1
Outgoing: 95.5

Incoming: Give the reported viability for this compound. COc1ccc(CC(=O)N2CCOCC2)cc1OC
Outgoing: 97.5

* * *

# assay: reversal of MRP1-mediated doxorubicin resistance, pilot screen, H69AR cells, doxorubicin co-treatment (AID 601)
# run-conditions: H69AR cells + 2 uM doxorubicin, CellTiter-Glo, 72 h; measured here: viability with 2 uM doxorubicin; at 10 µM; stronger effect = lower value
Label fulfilled when viability is strictly below 90%; otherwise label not fulfilled.

molecule: Cc1cccc(Nc2nc(N)nc(CN3CCC(C(N)=O)CC3)n2)c1C
category-label: fulfilled

molecule: CCOC(=O)C(C)On1c(SC(C)C(=O)OCC)nc2ccccc2c1=O (configuration not stated)
category-label: not fulfilled

molecule: CCn1c2ccccc2c2cc(NC(=O)CSc3nnc(C4CC4)n3Cc3ccco3)ccc21
category-label: not fulfilled

molecule: c1ccc2c(c1)sc1nnnn12
category-label: not fulfilled

molecule: O=C(NCN1CCCCC1)c1cnccn1
category-label: not fulfilled

Incoming: Field: below-cutoff. Rule: recorded viability strictly less than 90%. Subject: Cc1ccc(NC2=NC(c3ccccc3)n3c(nc(C)cc3=O)N2)cc1 (configuration not stated)
Outgoing: fulfilled

Incoming: Field: below-cutoff. Rule: recorded viability strictly less than 90%. Subject: Cc1oc2c(CN3CCCC3)c(O)ccc2c(=O)c1-c1ccccc1
Outgoing: fulfilled

Incoming: Field: below-cutoff. Rule: recorded viability strictly less than 90%. Subject: O=S(=O)(Cc1ccccc1)N1CCCCCC1
Outgoing: not fulfilled

Incoming: Field: below-cutoff. Rule: recorded viability strictly less than 90%. Subject: O=C(CSc1nnnn1-c1ccccc1)c1cc2ccccc2oc1=O
Outgoing: fulfilled

* * *

# measurement-target: Receptor tyrosine-protein kinase erbB-2 (Homo sapiens)
# assay: reducers of endogenous Her2 protein level, primary screen, SKBR3 breast tumor cells, AlphaScreen, ATP viability (AID 461);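 note: lower value means less Her2 protein in the cells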
# run-conditions: 18-24 h, at 10 µM, stronger effect = lower value
# reported Her2 level; entries follow
Please respond with the number in % and leave the unit unwritten.

compound: CC(C)(C)NC(=O)Cn1nnc(-c2cccs2)n1
Her2 level, %: 84

compound: Cc1cc(OC(=O)N2CCOCC2)cc(C)c1Cl
Her2 level, %: 94.5

compound: CCC(=O)Nc1cc(C(=O)NCC2CCCN2CC)c(OC)cc1N(C)C (configuration not stated)
Her2 level, %: 111

compound: Cc1sc2nc(CN3CCN(S(=O)(=O)c4cccc5nonc45)CC3)[nH]c(=O)c2c1C
Her2 level, %: 93.5

compound: S=C(c1cccs1)N1CCCC1
Her2 level, %: 110

compound: O=C(CSc1nnc(Cn2cnc3ccccc32)o1)c1ccccc1
Her2 level, %: 86.5

compound: CN(C)C(=O)N1CCC(C(=O)NC2CCCCCCC2)CC1
Her2 level, %: 112

compound: CCSc1nc2ccccc2n1CC(N)=O
Her2 level, %: 81

Incoming: Give the reported Her2 level for this compound. COc1ccccc1NC(=O)C(O)C(O)C(=O)Nc1ccccc1OC (configuration not stated)
Outgoing: 104

Incoming: Give the reported Her2 level for this compound. CCc1ccc2nc(NC(=O)CSCc3c(C)noc3C)sc2c1
Outgoing: 110

Incoming: Give the reported Her2 level for this compound. O=C(CCN1C(=O)C2C3C=CC(C3)C2C1=O)Nc1c(F)cc(F)cc1Br (configuration not stated)
Outgoing: 91.5

Incoming: Give the reported Her2 level for this compound. COc1cccc(OCc2nc3c4cnn(-c5ccccc5)c4ncn3n2)c1
Outgoing: 99.5

* * *

# assay: growth suppression of yeast trafficking mutant, preliminary HTS, modulators of trafficking downstream of Golgi apparatus project, 1536-format plate, OD 615 nm (AID 637)
# run-conditions: yeast transport mutant growth, absorbance 615 nm, 18 h; stronger effect = higher value
# reported inhibition; entries follow
Please respond with the number in % and leave the unit unwritten.

compound: CCSc1nnc(NC(=O)CCNS(=O)(=O)c2cc(Br)cnc2N)s1
value-kind: inhibition
meas-value: -0.82
--
compound: COC(=O)c1cc(NS(=O)(=O)c2ccc3c(c2)CCC(=O)N3)cc(C(=O)OC)c1
value-kind: inhibition
meas-value: -2.86
--
compound: Cn1c(=O)c(C(=O)Nc2cccnc2)c(O)c2ccccc21
value-kind: inhibition
meas-value: 2.46
--
compound: O=C(CSc1nnc(-c2ccccc2F)o1)OCc1ccccc1
value-kind: inhibition
meas-value: 2.95
--
compound: COc1ccc(OCCOC(=O)c2cccs2)cc1
value-kind: inhibition
meas-value: 5.24

Let's switch to this compound now.
Incoming: Give the reported inhibition for this compound. C=CCn1c(SCC(=O)O)nnc1-c1cccc(Cl)c1
Outgoing: -3.67

* * *

# assay: reversal of MRP1-mediated doxorubicin resistance, pilot screen, H69AR cells, doxorubicin co-treatment (AID 601)
# run-conditions: H69AR cells, CellTiter-Glo, 72 h; compound alone cytotoxicity; at 10 µM
Label yes when viability is strictly below 90%; otherwise label no.

Example cases with answers are listed next.
compound: CSc1ccc(S(=O)(=O)Nc2cccc(F)c2)cc1
category-label: no
--
compound: NC(=O)C1(N2CCCCC2)CCN(Cc2ccccc2Cl)CC1
category-label: yes
--
compound: Cc1c(C(=O)NCc2cccnc2)oc2ccc(S(=O)(=O)N3CCCCC3)cc12
category-label: yes
--
compound: CCN(CC)S(=O)(=O)c1cccc2c(N(C)C)cccc12
category-label: no
--
compound: CNC(=O)CC(C(=O)O)c1ccc(OCC(C)C)cc1 (stereo unspecified)
category-label: no

Incoming: Field: below-cutoff. Rule: recorded viability strictly less than 90%. Subject: CCN1CCN(CCCNC(=O)c2cn(CCOC)c(=O)c3c2c2ccccc2n3C)CC1
Outgoing: no
